# Tested on: TK-10
# assay.text: NCI tumour cell line growth inhibition, 48 h
Activity calls are given as the source filed them. No stated cut-off is given here; in the data, active = GI50 up to about 1.1 µM and inactive = higher.
I would appreciate it if you answered using one of these outcomes: 1 (yes) for active, 0 (no) for inactive

Q) What did the test return for "O=C1C[C@@H]2[C@@H](C=CC23CCCC3)N1O" ?
A) 0 (no)

Q) What did the test return for "O=C1Nc2ccccc2/C1=N\c1cccc2ncccc12" ?
A) 0 (no)

Q) What did the test return for "O=C1C/C(Br)=C\c2ccccc2-c2ccccc21" ?
A) 0 (no)

Q) What did the test return for C1CSCCSCCCSC2CCCCC2SC1 (centres undefined) ?
A) 0 (no)

Q) What did the test return for "Oc1ccc(Oc2cc3c(cc2Oc2ccc(O)cc2)-c2nc-3nc3[nH]c(nc4nc(nc5[nH]c(n2)c2cc(Oc6ccc(O)cc6)c(Oc6ccc(O)cc6)cc52)-c2cc(Oc5ccc(O)cc5)c(Oc5ccc(O)cc5)cc2-4)c2cc(Oc4ccc(O)cc4)c(Oc4ccc(O)cc4)cc32)cc1" ?
A) 0 (no)

Q) What did the test return for CN(CCN1CCCC1)C1CCc2cc(Cl)c(Cl)cc2C1 (centres undefined) ?
A) 0 (no)

Q) What did the test return for CCCCCCCCCCCCCCCCCCOC(COP(=O)(O)OCC1OC(n2cc(F)c(=O)[nH]c2=O)CC1O)COP(=O)(O)OCC1OC(n2ccc(N)nc2=O)C(O)C1O (centres undefined) ?
A) 0 (no)

Q) What did the test return for COC1[C@H](NC(=O)OC(C)(C)C)C(=O)N1Cc1ccccc1 (some centres undefined) ?
A) 0 (no)

Q) What did the test return for "CCOC(=O)C1=C(N)N(c2ccccc2)/C(=C2\SC(=S)N(c3ccc(C)cc3)C2=O)S1" ?
A) 0 (no)

Q) What did the test return for "CC(C)OP(=O)(OC(C)C)/C(=N/Nc1ccc([N+](=O)[O-])cc1)Nc1ccc(N/C(=N\Nc2ccc([N+](=O)[O-])cc2)P(=O)(OC(C)C)OC(C)C)cc1" ?
A) 0 (no)

Q) What did the test return for "O=c1cc(N2CCNCC2)nc2ccccn12" ?
A) 0 (no)

Q) What did the test return for COc1ccc(N(C(=O)Nc2ccc(Cl)c(Cl)c2)C2c3cccn3C(=O)N2c2ccc(Cl)c(Cl)c2)cc1 (centres undefined) ?
A) 0 (no)

Q) What did the test return for "Cc1c(C(=O)C/C(=N\O)C(=O)Nc2cc(Cl)c(Cl)cc2Cl)[n+]([O-])c2ccccc2[n+]1[O-]" ?
A) 0 (no)

Q) What did the test return for "COc1ccc2nc(-c3ccc(N)cc3)sc2c1" ?
A) 0 (no)

Q) What did the test return for "COC(=O)c1c(O)ccc2c1c1c(n2Cc2ccccc2)C(=O)c2ccccc2C1=O" ?
A) 0 (no)

Q) What did the test return for "O=C1C=C(O)C(=Cc2c(O)cc(O)cc2O)C(O)=C1" ?
A) 0 (no)

Q) What did the test return for "O=C(C#Cc1ccccc1)C1=Cc2ccccc2OC1" ?
A) 0 (no)

Q) What did the test return for "C=C1C[C@@H]2O[C@H]3[C@H]4[C@@H](C[C@@H](C)[C@@H](OC(C)=O)[C@H]42)[C@@H](C)CO[C@@]3(C)[C@H](OC(C)=O)C[C@H]1O" ?
A) 0 (no)

Q) What did the test return for C/C=C/C(O)P(=O)(OC)OC (centres undefined) ?
A) 1 (yes)
